- SYSTEM_UNDER_TEST: T1, rat VPAC1 receptor (rat, UniProt P30083 31-459)
- T1 sequence (looked up): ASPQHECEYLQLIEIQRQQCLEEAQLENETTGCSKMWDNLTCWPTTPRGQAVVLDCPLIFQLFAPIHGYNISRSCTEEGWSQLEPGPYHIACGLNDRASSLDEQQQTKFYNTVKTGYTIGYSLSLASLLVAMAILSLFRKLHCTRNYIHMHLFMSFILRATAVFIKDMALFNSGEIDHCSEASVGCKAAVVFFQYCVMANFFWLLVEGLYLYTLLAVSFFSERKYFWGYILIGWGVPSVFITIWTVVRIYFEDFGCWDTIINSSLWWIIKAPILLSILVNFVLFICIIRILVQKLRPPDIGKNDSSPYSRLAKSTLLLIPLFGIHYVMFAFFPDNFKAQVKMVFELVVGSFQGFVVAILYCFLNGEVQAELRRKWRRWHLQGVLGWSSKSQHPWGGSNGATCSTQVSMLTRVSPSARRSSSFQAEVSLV
- EXPERIMENT_SUMMARY: cell-based or functional assay
Where no end group is shown, it is not given here. [ ]: non-standard residue; d: D form. The star is where a group is joined. Hexanoyl = CCCCCC(=O)*; Aib = CC(C)(N)C(=O)O
REPORTED_ENDPOINT: EC50 cAMP, DiscoveRx (nM)
A number alone suffices; assume nM.

A selection of reference data follows.
Hexanoyl-HSDAVFTDNYTRLK[Aib]QVAA[Aib]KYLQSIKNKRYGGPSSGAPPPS (ends and bridges not checked) [P318]	9.96
Hexanoyl-HSDAVFTDNYTRLRKQVAAKKYLQSIKQKGGPSSGAPPPS [P270]	0.67

Turning now to a further binder:
[ask] EC50 cAMP, DiscoveRx for Hexanoyl-HSDAVFTDNYTRL[Aib]KQVAA[Aib]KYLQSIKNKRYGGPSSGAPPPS (ends and bridges not checked) [P242] ?
[reply] 72.2
